- System: Saccharomyces cerevisiae;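 also: PSI is a weighted mean of sequencing reads over stability bins, variants kept only with over 10 reads, mCherry proximal and sfGFP distal, peptide attached via GGGS linker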
- protocol: protein stability index of tFT-peptide fusion (C-terminal peptide) (PSI (0-1 scale)); higher = more stable (slower turnover)
- particulars: genetic background: wild type; temperature: 37 C
Kindly state protein stability index for each of the entries shown.

[ask] Which measured protein stability index value corresponds to FCIFAMQICTSA ?
[reply] 0.205

[ask] Bench note: what protein stability index did KSTLVRILVFHV show?
[reply] 0.522

[ask] Which protein stability index is reported for this sequence? CLCLICFLCWFA
[reply] 0.496

[ask] Report protein stability index for VLILFFLVVFYV please.
[reply] 0.336

[ask] Using the record for FHLFIRRSAVIF , report its protein stability index.
[reply] 0.458

[ask] Entry FLLYVITYRSET has what protein stability index?
[reply] 0.378

[ask] Name the recorded protein stability index for LNTVALIRIVVS .
[reply] 0.19

[ask] Recorded protein stability index of LSSRGGRCRRLV , please.
[reply] 0.588

[ask] Which protein stability index is listed for SWMFKLCIQWNV ?
[reply] 0.49

[ask] Returns the measured protein stability index for the input sequence. Input: KIKKLKNRRKLV
[reply] 0.196

[ask] I am curious: what protein stability index value has been reported for LVLFYLWSSVWA ?
[reply] 0.441

[ask] Using the record for HPPPPPPPPSLS , report its protein stability index.
[reply] 0.704

[ask] Sample LSACYSRYVFVS — what was its protein stability index?
[reply] 0.115

[ask] Entry LDLPFESGIACF has what protein stability index?
[reply] 0.397

[ask] Field request: protein stability index | item: ELDVRPMVFLVA
[reply] 0.457

[ask] Consider the sequence FVRGWGIVFSLA and give its measured protein stability index.
[reply] 0.467

[ask] I would be grateful if you could share the reported protein stability index for LLRIFLPLLYLL .
[reply] 0.2

[ask] Look up protein stability index for this sequence: SLRPFFPPLPRP
[reply] 0.719

[ask] Reported protein stability index, sequence VCYLMRSLTFAY : ____
[reply] 0.473
